This collection of values is drawn from ChEMBL document CHEMBL3988442.

Listed here: items and their measured Percent Effect.
molecular target: Shiga toxin 2 (Escherichia coli O157:H7) (UniProt P09385+P09386); experiment: E. coli 0.157:H7 Shiga Toxin SOP - stx2 screening assay; format: functional; design: scale not given: direction of the effect not stated beside the values; details: 30 µM
MEASURED ATTRIBUTE: Percent Effect (%)

In [3]: df
Out[3]:
                                    compound                           target_of_assay  measured_attribute  readout_number
 0  CC(C)NC(=O)[C@H]1C[C@@H]2[C@@H](C1)OCCN2Cc1cccnc1  Shiga toxin 2 (Escherichia coli O157:H7) (UniProt P09385+P09386)      Percent Effect           -9.38
 1  CCOCC(O)CN1CCN(C(=O)CC(C)C)CC1 (stereo not given)  Shiga toxin 2 (Escherichia coli O157:H7) (UniProt P09385+P09386)      Percent Effect            18.6
 2  O=C(NCCN1CCC(c2cccs2)CC1)c1ccccc1C(F)(F)F  Shiga toxin 2 (Escherichia coli O157:H7) (UniProt P09385+P09386)      Percent Effect           -49.7
 3  CC(C)c1nc(C2CCCN2Cc2ccno2)no1 (stereo not given)  Shiga toxin 2 (Escherichia coli O157:H7) (UniProt P09385+P09386)      Percent Effect             1.7
 4  Cc1cc(CNC(=O)NC(C)c2ccc(N3CCOCC3)cc2)no1 (stereo not given)  Shiga toxin 2 (Escherichia coli O157:H7) (UniProt P09385+P09386)      Percent Effect           -23.6
 5  c1ccc2oc(NC3CCCN(Cc4noc(C5CC5)n4)C3)nc2c1 (stereo not given)  Shiga toxin 2 (Escherichia coli O157:H7) (UniProt P09385+P09386)      Percent Effect           -6.82
 6  Cc1nn2c(N3CCC(O)C3)cc(-c3ccccc3)nc2c1C (stereo not given)  Shiga toxin 2 (Escherichia coli O157:H7) (UniProt P09385+P09386)      Percent Effect           -33.6
 7  COc1cccc(S(=O)(=O)N2CCn3cnc(COCC4CC4)c3C2)c1  Shiga toxin 2 (Escherichia coli O157:H7) (UniProt P09385+P09386)      Percent Effect            1.15
 8  Cc1cnn(CCC(=O)N2C[C@H]3CC[C@@H]2CN(CC(=O)N(C)C)C3)c1  Shiga toxin 2 (Escherichia coli O157:H7) (UniProt P09385+P09386)      Percent Effect           -21.6
 9  NS(=O)(=O)CCNC(=O)c1nnn(-c2ccc(F)cc2)c1C1CC1  Shiga toxin 2 (Escherichia coli O157:H7) (UniProt P09385+P09386)      Percent Effect           -8.62
10  COC(=O)CN(C)C1CCc2ccccc21 (stereo not given)  Shiga toxin 2 (Escherichia coli O157:H7) (UniProt P09385+P09386)      Percent Effect            28.1
11  Fc1ccc(CN2CCO[C@H]3[C@H](OCCN4CCCC4)CC[C@@H]32)cc1  Shiga toxin 2 (Escherichia coli O157:H7) (UniProt P09385+P09386)      Percent Effect           -20.2
12  O=C(c1cncc(Br)c1)N1CCC(O)(Cn2ccc3ccncc32)CC1  Shiga toxin 2 (Escherichia coli O157:H7) (UniProt P09385+P09386)      Percent Effect           -12.7
13  CN(C(=O)Cn1nc(-c2ccc(F)cc2)ccc1=O)C1CCS(=O)(=O)C1 (stereo not given)  Shiga toxin 2 (Escherichia coli O157:H7) (UniProt P09385+P09386)      Percent Effect             1.8
14  c1ccc(OC[C@H]2CCC[C@]23CN(Cc2nccs2)CCO3)nc1  Shiga toxin 2 (Escherichia coli O157:H7) (UniProt P09385+P09386)      Percent Effect           -11.8
15  CC(C)c1csc(C2CCCN(C(=O)c3ncccn3)C2)n1 (stereo not given)  Shiga toxin 2 (Escherichia coli O157:H7) (UniProt P09385+P09386)      Percent Effect             -20
16     Cc1cnn(CCNCC(=O)NCC2(c3ccccc3)CCC2)c1  Shiga toxin 2 (Escherichia coli O157:H7) (UniProt P09385+P09386)      Percent Effect            22.9
17  Cc1nnc(N2CCCC3(CN(Cc4ccncc4)CCO3)C2)o1 (stereo not given)  Shiga toxin 2 (Escherichia coli O157:H7) (UniProt P09385+P09386)      Percent Effect           -16.9
18    CCN(CC)c1ccc(NS(=O)(=O)c2cncc(F)c2)cn1  Shiga toxin 2 (Escherichia coli O157:H7) (UniProt P09385+P09386)      Percent Effect           -27.3
19  CC(C)c1nn(C)c(Cl)c1CNC1CCOc2ccccc21 (stereo not given)  Shiga toxin 2 (Escherichia coli O157:H7) (UniProt P09385+P09386)      Percent Effect            27.5
20  CCc1noc(C(C)N(C)CC(=O)Nc2ccc(C)cc2)n1 (stereo not given)  Shiga toxin 2 (Escherichia coli O157:H7) (UniProt P09385+P09386)      Percent Effect           -3.18
21     CCc1ncc2c(n1)CN(CC(=O)Nc1nnc(C)s1)CC2  Shiga toxin 2 (Escherichia coli O157:H7) (UniProt P09385+P09386)      Percent Effect           -18.6
22  CCCOc1ccc(CNC(=O)N2CCC(C(N)=O)C2)cc1 (stereo not given)  Shiga toxin 2 (Escherichia coli O157:H7) (UniProt P09385+P09386)      Percent Effect          -0.133
23  CCc1noc(C)c1C(=O)N1CCCC1c1c(C)nn(C)c1OC (stereo not given)  Shiga toxin 2 (Escherichia coli O157:H7) (UniProt P09385+P09386)      Percent Effect            5.57
24   CCN(Cc1ccc2c(c1)OCCO2)C(=O)NCc1cc[nH]n1  Shiga toxin 2 (Escherichia coli O157:H7) (UniProt P09385+P09386)      Percent Effect            27.9
25  Cc1ccccc1CSc1nc(N)cc(N2CCOC(C(N)=O)C2)n1 (stereo not given)  Shiga toxin 2 (Escherichia coli O157:H7) (UniProt P09385+P09386)      Percent Effect           -13.5
26  COc1ccc(CN2CCOC3(CCCN(c4nnc(C)o4)C3)C2)cc1 (stereo not given)  Shiga toxin 2 (Escherichia coli O157:H7) (UniProt P09385+P09386)      Percent Effect            7.44
27  CCOC1COC2(CCN(Cc3ccc4c(c3)OCO4)CC2)C1 (stereo not given)  Shiga toxin 2 (Escherichia coli O157:H7) (UniProt P09385+P09386)      Percent Effect           -2.45
28               O=C(Nc1cn[nH]c1)c1ccc(O)nc1  Shiga toxin 2 (Escherichia coli O157:H7) (UniProt P09385+P09386)      Percent Effect            30.3
29  CCc1ccc(C(=O)O)cc1S(=O)(=O)Nc1ccc(F)c(C#N)c1  Shiga toxin 2 (Escherichia coli O157:H7) (UniProt P09385+P09386)      Percent Effect           -1.93
30  O=C(NCC(O)c1ccc(F)c(F)c1)c1cccnc1O (stereo not given)  Shiga toxin 2 (Escherichia coli O157:H7) (UniProt P09385+P09386)      Percent Effect           -4.45
31  CCn1nc(C)c(CCNC(=O)C2CCCN(CC(N)=O)C2)c1C (stereo not given)  Shiga toxin 2 (Escherichia coli O157:H7) (UniProt P09385+P09386)      Percent Effect            7.92
32  COCCc1noc(CN2CCCCC2Cn2cc(C)cn2)n1 (stereo not given)  Shiga toxin 2 (Escherichia coli O157:H7) (UniProt P09385+P09386)      Percent Effect             9.7
33  CCC(C)(NCC(=O)Nc1nc(C)cs1)c1nc(C)cs1 (stereo not given)  Shiga toxin 2 (Escherichia coli O157:H7) (UniProt P09385+P09386)      Percent Effect           -28.4
34      COC[C@H]1CCC[C@]12CN(CCc1ccccc1)CCO2  Shiga toxin 2 (Escherichia coli O157:H7) (UniProt P09385+P09386)      Percent Effect             -22
35  COc1ccccc1C(=O)NC(C)CC(=O)O (stereo not given)  Shiga toxin 2 (Escherichia coli O157:H7) (UniProt P09385+P09386)      Percent Effect           -19.9
36  OC(CN1CCN(Cc2ccc(F)c(F)c2)CC1)C1CC1 (stereo not given)  Shiga toxin 2 (Escherichia coli O157:H7) (UniProt P09385+P09386)      Percent Effect          -0.879
37     COCCNC(=O)c1cc2c(s1)CCN2C(=O)c1ccccc1  Shiga toxin 2 (Escherichia coli O157:H7) (UniProt P09385+P09386)      Percent Effect           -56.3
38  c1cnc(N2CCC3(COCCN(CC4CC4)C3)C2)nc1 (stereo not given)  Shiga toxin 2 (Escherichia coli O157:H7) (UniProt P09385+P09386)      Percent Effect             3.4
39  CC(NC1CCN(CCS(C)(=O)=O)CC1)c1ccc(Cl)cc1 (stereo not given)  Shiga toxin 2 (Escherichia coli O157:H7) (UniProt P09385+P09386)      Percent Effect           -1.87
40  CC(C)COC(C)C(=O)NCc1ccc(N(C)C)cc1 (stereo not given)  Shiga toxin 2 (Escherichia coli O157:H7) (UniProt P09385+P09386)      Percent Effect           -8.68
41  O=C(c1ccc(Br)o1)N1CCCC(n2cncn2)C1 (stereo not given)  Shiga toxin 2 (Escherichia coli O157:H7) (UniProt P09385+P09386)      Percent Effect           -10.4
42  O=C(CCn1cnnc1)N1CCCC(c2ncc[nH]2)C1 (stereo not given)  Shiga toxin 2 (Escherichia coli O157:H7) (UniProt P09385+P09386)      Percent Effect           -29.4
43  CNC(=O)c1cc2c(nc1NCC(C)C)CCN(S(=O)(=O)C1CC1)CC2  Shiga toxin 2 (Escherichia coli O157:H7) (UniProt P09385+P09386)      Percent Effect            1.28
44  Cc1nc(C2CCCN2Cc2nc(C)c(C)o2)no1 (stereo not given)  Shiga toxin 2 (Escherichia coli O157:H7) (UniProt P09385+P09386)      Percent Effect            7.48
